tested on: COLO 205 colon; assay: NCI tumour cell line growth inhibition, 48 h; in the data active = GI50 below about 0.43 µM; inactive = the rest
Classes used: active, inactive

[[record]]
chemical_structure = "COc1ccc(OC)c(N2CC(O)=C(c3nc4ccccc4s3)C2=N)c1"
class_assignment = "inactive"

[[record]]
chemical_structure = "COc1ccc(C)c2sc(N(Cc3cccnc3)C(=O)c3ccc(C#N)cc3)nc12"
class_assignment = "inactive"

[[record]]
chemical_structure = "Cc1cc(-c2nc3sc(C)cn3c2/C=N/N=C(N)N)c(C)s1"
class_assignment = "inactive"

[[record]]
chemical_structure = "COc1cccc(/C=N\\NC(=O)c2ccncc2)c1O"
class_assignment = "inactive"

[[record]]
chemical_structure = "COc1ccc(Nc2ncc(I)c(NCCCNC(=O)C3CCC3)n2)cc1"
class_assignment = "inactive"

[[record]]
chemical_structure = "O=c1[nH]c(-c2ccc(Cl)c(Cl)c2)cn1-c1ccc(Cl)cc1"
class_assignment = "inactive"

[[record]]
chemical_structure = "O=C1OC2(c3ccc(O)cc3Oc3cc(O)ccc32)c2cccc3cccc1c23"
class_assignment = "inactive"

[[record]]
chemical_structure = "CCc1cc2c(c(OCC(F)(F)F)c(C(=O)NC3CCN(C(=O)CO)CC3)n2C)c(=O)n1CC(=O)c1ccccc1"
class_assignment = "inactive"

[[record]]
chemical_structure = "Cc1ncc(C(=O)Nc2ccc(CN3CCN(C)CC3)c(C(F)(F)F)c2)cc1C#Cc1cnc(N)c2ccc(C#N)cc12"
class_assignment = "active"

[[record]]
chemical_structure = "CCCCN(CCCC)P(=O)(Oc1ccccc1)Oc1ccccc1"
class_assignment = "inactive"

[[record]]
chemical_structure = "O=Cc1ccc(-c2ccc(-c3nc4ccccc4s3)cc2)o1"
class_assignment = "inactive"

[[record]]
chemical_structure = "CN1CCN(C)C1c1ccc(C2N(C)CCN2C)cc1"
class_assignment = "inactive"

[[record]]
chemical_structure = "O=C(Nc1ccc(Cl)c(C(F)(F)F)c1)Nc1ccc(-c2cccnc2)cc1N1CCC(CO)CC1"
class_assignment = "inactive"

[[record]]
chemical_structure = "COc1ccc(Sc2[nH]c(C=O)c3ccccc23)cc1"
class_assignment = "inactive"

[[record]]
chemical_structure = "CCCN(CCC)c1ccc(/C=N/NC(=O)c2cccnc2)c(C)c1"
class_assignment = "inactive"


====

tested on: NCI-H460 lung; assay: NCI tumour cell line growth inhibition, 48 h
assay_endpoint: TGI

[[record]]
chemical_structure = "O=S(O)O.O=S(O)O.[Co].[NH2-].[NH2-].[NH2-].[NH2-]"
result = "> 100 µM"

[[record]]
chemical_structure = "C/C(=N\\O)c1ccc(OCc2cc(C(F)(F)F)cc(C(F)(F)F)c2)cc1"
result = "69.1 µM"

[[record]]
chemical_structure = "CCCCCSc1ccc2nc(NC(=O)OCC)sc2c1"
result = "> 100 µM"

[[record]]
chemical_structure = "COc1c(Sc2c(SCSc3cnc4ccccc4c3Sc3cnc4ccccc4c3OC)cnc3ccccc23)cnc2ccccc12"
result = "> 100 µM"

[[record]]
chemical_structure = "COc1ccc(OC)c(N2CC(O)=C(c3nc4ccccc4s3)C2=N)c1"
result = "> 100 µM"


====

tested on: HOP-18 NSCLC; assay: NCI tumour cell line growth inhibition, 48 h
Entries and their measured TGI follow.
assay_endpoint: TGI (µM)

[[record]]
molecule = "Cc1nc2ccccc2c(=O)n1/N=C(\\N=Nc1ccccc1)c1ccccc1Cl"
cmp = "="
measured_number = 30.1

[[record]]
molecule = "O=C(CCN1CCCCC1)Nc1ccc2c(c1)C(=O)c1ccc(NC(=O)CCN3CCCCC3)cc1C2=O"
cmp = "="
measured_number = 30.7

[[record]]
molecule = "C=C(C)CC(C(=O)O)c1ccc(C)cc1 (stereo unspecified)"
cmp = ">"
measured_number = 100

[[record]]
molecule = "CC1(O)CC2C(CC1SC1CC3C(CC1(C)O)C3(C)C)C2(C)C (stereo unspecified)"
cmp = ">"
measured_number = 100

[[record]]
molecule = "CC(C)C1=Cc2ccc3c(c2C(=O)C1=O)CCCC3"
cmp = "="
measured_number = 8.96

[[record]]
molecule = "c1cc[c]([Ge]([O]c2cccc3cccnc23)([c]2ccccc2)[c]2ccccc2)cc1"
cmp = "="
measured_number = 8.37

